Hey, just so you know, these numbers are from the supplement of paper PMC7125110.

B1: glmS ribozyme (parent)
chain: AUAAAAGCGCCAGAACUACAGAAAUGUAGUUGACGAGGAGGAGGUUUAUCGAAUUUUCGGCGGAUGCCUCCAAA

variants of: B1; test: self-cleavage kobs at 2500 uM GlcN6P; higher = faster cleavage; RNA array; settings: with glucosamine-6-phosphate
Fewer inactive variants are shown than the library holds.
Consider the following variants; for each one, report its self-cleavage kobs at 2500 uM GlcN6P.

Field request: self-cleavage kobs at 2500 uM GlcN6P | item: U31G C61A
< 1e-05 s⁻¹

Field request: self-cleavage kobs at 2500 uM GlcN6P | item: U30G G38C
< 1e-05 s⁻¹

Field request: self-cleavage kobs at 2500 uM GlcN6P | item: C8G C61A
< 1e-05 s⁻¹

Field request: self-cleavage kobs at 2500 uM GlcN6P | item: G32C A33U A52G
< 1e-05 s⁻¹

Field request: self-cleavage kobs at 2500 uM GlcN6P | item: G51C C61A
< 1e-05 s⁻¹

Field request: self-cleavage kobs at 2500 uM GlcN6P | item: U56G U69C C70A
6.56e-05 s⁻¹

Field request: self-cleavage kobs at 2500 uM GlcN6P | item: G35U G59C
< 1e-05 s⁻¹

Field request: self-cleavage kobs at 2500 uM GlcN6P | item: G37U A39U G40U A48U C50G C67A
< 1e-05 s⁻¹

Field request: self-cleavage kobs at 2500 uM GlcN6P | item: G13C U30C A36G G41C C70A
< 1e-05 s⁻¹

Field request: self-cleavage kobs at 2500 uM GlcN6P | item: A48G U55C G59C
< 1e-05 s⁻¹

Field request: self-cleavage kobs at 2500 uM GlcN6P | item: A42C A48G C50G C61A C70U
< 1e-05 s⁻¹

Field request: self-cleavage kobs at 2500 uM GlcN6P | item: C8G A12U A39U
< 1e-05 s⁻¹

Field request: self-cleavage kobs at 2500 uM GlcN6P | item: C8A C10U G32A A48G
< 1e-05 s⁻¹

Field request: self-cleavage kobs at 2500 uM GlcN6P | item: C34G A64G
< 1e-05 s⁻¹

Field request: self-cleavage kobs at 2500 uM GlcN6P | item: G40A A48G
4.6e-05 s⁻¹

Field request: self-cleavage kobs at 2500 uM GlcN6P | item: C8G G9C A39C
< 1e-05 s⁻¹

Field request: self-cleavage kobs at 2500 uM GlcN6P | item: G35A C50G C71U
8.9e-05 s⁻¹

Field request: self-cleavage kobs at 2500 uM GlcN6P | item: C8G G38A A48G U57G
< 1e-05 s⁻¹

Field request: self-cleavage kobs at 2500 uM GlcN6P | item: G13A A64C C71U
< 1e-05 s⁻¹

Field request: self-cleavage kobs at 2500 uM GlcN6P | item: G35A G41U U46A
< 1e-05 s⁻¹

Field request: self-cleavage kobs at 2500 uM GlcN6P | item: A39G G66C
0.00169 s⁻¹

Field request: self-cleavage kobs at 2500 uM GlcN6P | item: U46A A64G G66A C71G
6.58e-05 s⁻¹

Field request: self-cleavage kobs at 2500 uM GlcN6P | item: A15U A33U
5.26e-05 s⁻¹

Field request: self-cleavage kobs at 2500 uM GlcN6P | item: A52G G60C
< 1e-05 s⁻¹

Field request: self-cleavage kobs at 2500 uM GlcN6P | item: C16U A33G U69A C70G
7.7e-05 s⁻¹

Field request: self-cleavage kobs at 2500 uM GlcN6P | item: G29U U54A C70A
6.05e-05 s⁻¹

Field request: self-cleavage kobs at 2500 uM GlcN6P | item: G29U C70U
0.00187 s⁻¹

Field request: self-cleavage kobs at 2500 uM GlcN6P | item: C10U C58G
< 1e-05 s⁻¹

Field request: self-cleavage kobs at 2500 uM GlcN6P | item: C8A A36U
< 1e-05 s⁻¹

Field request: self-cleavage kobs at 2500 uM GlcN6P | item: A42U U45A U49G
< 1e-05 s⁻¹

Field request: self-cleavage kobs at 2500 uM GlcN6P | item: C11A U30G G32U G44A G66A
< 1e-05 s⁻¹

Field request: self-cleavage kobs at 2500 uM GlcN6P | item: G29U U54A U65A
0.000241 s⁻¹

Field request: self-cleavage kobs at 2500 uM GlcN6P | item: C10U U49C
< 1e-05 s⁻¹

Field request: self-cleavage kobs at 2500 uM GlcN6P | item: A6G C34G G51U G63A
< 1e-05 s⁻¹

Field request: self-cleavage kobs at 2500 uM GlcN6P | item: A6U A14C G51C
< 1e-05 s⁻¹

Field request: self-cleavage kobs at 2500 uM GlcN6P | item: C34U A48U G59C C68A U69C
< 1e-05 s⁻¹

Field request: self-cleavage kobs at 2500 uM GlcN6P | item: U49A C50A C70G
4.46e-05 s⁻¹

Field request: self-cleavage kobs at 2500 uM GlcN6P | item: A14G C71A
0.0123 s⁻¹

Field request: self-cleavage kobs at 2500 uM GlcN6P | item: C11U G40C C71U
8.73e-05 s⁻¹

Field request: self-cleavage kobs at 2500 uM GlcN6P | item: C16G G40C U45G
6.01e-05 s⁻¹

Field request: self-cleavage kobs at 2500 uM GlcN6P | item: C8G A52G G59A
< 1e-05 s⁻¹

Field request: self-cleavage kobs at 2500 uM GlcN6P | item: C8A C10G A39C
< 1e-05 s⁻¹

Field request: self-cleavage kobs at 2500 uM GlcN6P | item: A12U A33C
0.000501 s⁻¹

Field request: self-cleavage kobs at 2500 uM GlcN6P | item: C16A C34A U65A
< 1e-05 s⁻¹

Field request: self-cleavage kobs at 2500 uM GlcN6P | item: C34G C50G G59A C67G
0.000115 s⁻¹

Field request: self-cleavage kobs at 2500 uM GlcN6P | item: G29U C34U U55A
< 1e-05 s⁻¹
